Reference for the values: patent US20230272011A1

Target: T1, human serum albumin (human, UniProt P02768 25-609)
T1 construct: mature; Bought protein; biotinylated in the Octet and HTRF assays; also called HSA; HuSA
Assay: SPR (Biacore), immobilised HSA, Affimer analyte
Measurement Label: koff (s⁻¹)
One number for each entry, in s⁻¹.

Value sought for every listed binder: koff.
1. HSA-41 (designed binder, also called HSA-41 parent; HSA-41 AH parent) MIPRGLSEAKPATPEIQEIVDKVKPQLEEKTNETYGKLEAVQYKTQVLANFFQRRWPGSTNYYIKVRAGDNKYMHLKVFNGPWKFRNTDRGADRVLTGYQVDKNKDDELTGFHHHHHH
2. AVA04-261 XT9 (designed binder) MIPRGLSEAKPATPEIQEIVDKVKPQLEEKTNETYGKLEAVQYKTQVLAHAYGPRDWDSTNYYIKVRAGDNKYMHLKVFNGPPADHVLEEAADRVLTGYQVDKNKDDELTGFGGGGSGGGGSGGGGSGGGGSGGGGSGGGGSMIPRGLSEAKPATPEIQEIVDKVKPQLEEKTNETYGKLEAVQYKTQVLANFFQRRWPGSTNYYIKVRAGDNKYMHLKVFNGPWKFRNTDRGADRVLTGYQVDKNKDDELTGFHHHHHH

Resp:
1: 0.00354; 2: 0.00357

Batch lookup, koff per entry.
1. AVA04-269 XT12 (designed binder) MIPRGLSEAKPATPEIQEIVDKVKPQLEEKTNETYGKLEAVQYKTQVLAKEYGPEEWWSTNYYIKVRAGDNKYMHLKVFNGPGDYEQVLIHADRVLTGYQVDKNKDDELTGFAEAAAKEAAAKEAAAKEAAAKEAAAKEAAAKMIPRGLSEAKPATPEIQEIVDKVKPQLEEKTNETYGKLEAVQYKTQVLANFFQRRWPGSTNYYIKVRAGDNKYMHLKVFNGPWKFRNTDRGADRVLTGYQVDKNKDDELTGFHHHHHH
2. AVA04-261 XT10 (designed binder) MIPRGLSEAKPATPEIQEIVDKVKPQLEEKTNETYGKLEAVQYKTQVLAHAYGPRDWDSTNYYIKVRAGDNKYMHLKVFNGPPADHVLEEAADRVLTGYQVDKNKDDELTGFAEAAAKEAAAKEAAAKEAAAKEAAAKEAAAKMIPRGLSEAKPATPEIQEIVDKVKPQLEEKTNETYGKLEAVQYKTQVLANFFQRRWPGSTNYYIKVRAGDNKYMHLKVFNGPWKFRNTDRGADRVLTGYQVDKNKDDELTGFHHHHHH
3. AVA04-236 XT7 (designed binder) MIPRGLSEAKPATPEIQEIVDKVKPQLEEKTNETYGKLEAVQYKTQVLAKEHGPDSWWSTNYYIKVRAGDNKYMHLKVFNGPQEKNQWVEEADRVLTGYQVDKNKDDELTGFGGGGSGGGGSGGGGSGGGGSGGGGSGGGGSMIPRGLSEAKPATPEIQEIVDKVKPQLEEKTNETYGKLEAVQYKTQVLANFFQRRWPGSTNYYIKVRAGDNKYMHLKVFNGPWKFRNTDRGADRVLTGYQVDKNKDDELTGFHHHHHH
4. AVA04-236 XT8 (designed binder) MIPRGLSEAKPATPEIQEIVDKVKPQLEEKTNETYGKLEAVQYKTQVLAKEHGPDSWWSTNYYIKVRAGDNKYMHLKVFNGPQEKNQWVEEADRVLTGYQVDKNKDDELTGFAEAAAKEAAAKEAAAKEAAAKEAAAKEAAAKMIPRGLSEAKPATPEIQEIVDKVKPQLEEKTNETYGKLEAVQYKTQVLANFFQRRWPGSTNYYIKVRAGDNKYMHLKVFNGPWKFRNTDRGADRVLTGYQVDKNKDDELTGFHHHHHH

Resp:
1: 0.00228; 2: 0.00291; 3: 0.00336; 4: 0.00252
